Tested on: TK-10 renal
Experiment: NCI-60 one-dose screen, 48 h (100 = growth as untreated, 0 = no growth, -100 = all killed)
Conditions: 10 µM unless noted
About 83,000 compounds went through this panel and 20% of them were active in at least one assay; those are over-represented in the sample as a whole.
The entries below come with measured growth values attached.
Quick reminder: number only, in %, skip the unit.

Exercise: Suppose we examine the compound CCOC(=O)CCN(CC(C)C)C(=S)Nc1ccccc1 ; what growth value has been reported?
Key: 104

Exercise: Field entry: Cc1cccc(NC(=O)Nc2ccc(-n3cnc4cc(-c5ccc(O)cc5)ccc43)cc2)c1
Key: 21.8

Exercise: Field entry: COc1cc(C2C3CC4CCCC[C@H]4N3[C@@]3(C(=O)Nc4cc(Cl)ccc43)C2C(=O)c2nc3ccccc3[nH]2)cc(OC)c1OC (some centres not stated)
Key: 68.8

Exercise: Field entry: Nc1n[nH]c2cccc(C#Cc3cccc(C(=O)Nc4cccc(C(F)(F)F)c4)c3)c12
Key: 97.5

Exercise: Field entry: Cc1cc(C(=O)/C=C/c2ccc[nH]2)ccc1-n1ccc(C(F)(F)F)n1
Key: 95.6

Exercise: Field entry: COc1cc2c(cc1OC)C(=O)/C(=C/c1cc(C)c(O)c(C)c1)S2
Key: 66

Exercise: Field entry: O=C(/C=C(O)/C=C/c1ccc(SC(F)(F)F)cc1)/C=C/c1ccc(SC(F)(F)F)cc1
Key: 101

====

System: HT29 colon
Test: NCI-60 one-dose screen, 48 h
Details: 10 µM unless noted
The panel holds about 83,000 compounds, 20% with a hit somewhere; the sample as a whole holds those more often. Calls of active or inactive are those of the source. The calls were made as follows: active = growth percent below 10; inactive = the rest.
Returns: one label drawn from true (1) (active), false (0) (inactive)

Exercise: Give the logged outcome of this assay for the following molecule: CC(=O)Nc1cccc(-c2ccc3c(c2)NC(=O)/C3=C\c2ccc[nH]2)c1
Key: false (0)

Exercise: Field entry: O=C1Nc2ccc(F)cc2/C1=C\c1c(-c2ccccc2)nc2ccccn12
Key: false (0)

Exercise: Field entry: CCOC(=O)[C@@H](C)C[C@H](Cc1ccccc1)NC(=O)c1csc([C@@H](C[C@H](C(C)C)N(C)C(=O)[C@@H](NC(=O)[C@H]2C[C@H](O[Si](C)(C)C(C)(C)C)CCN2C)C(C)C)OC(C)=O)n1
Key: true (1)

Exercise: Field entry: COc1cc(/C=C\C(=O)O)ccc1OCc1ccccc1
Key: false (0)

Exercise: Field entry: CN1CCN(C(=O)[C@]23CCC(C)(C)C[C@H]2C2=CC[C@@H]4[C@@]5(C)C/C(=C/c6ccncc6)C(=O)C(C)(C)[C@@H]5CC[C@@]4(C)[C@]2(C)CC3)CC1
Key: true (1)

Exercise: Field entry: Cn1c(-c2c(N)n(CCCN3CCOCC3)c3nc(C#N)c(C#N)nc23)nc2ccccc21
Key: false (0)

Exercise: Field entry: Cc1ccc(/C=C(/C#N)n2nnc3cccc(F)c32)cc1
Key: true (1)

Exercise: Field entry: CCSCC1CC(O)(c2ccccc2)CC(c2ccc(F)cc2)O1 (configuration not stated)
Key: true (1)

Exercise: Field entry: COc1ccc(C(=O)c2nc3ccccc3n2CC(=O)c2ccc(Cl)cc2)cc1
Key: false (0)

Exercise: Field entry: COc1ccc(C(=O)c2cc(OC)c(OC)c(OC)c2)cc1O
Key: false (0)

Exercise: Field entry: CCCCOc1ccc(/C=N/Nc2cc(C)nc3ccc(Br)cc23)cc1
Key: true (1)

Exercise: Field entry: CCNC(=O)Oc1ccc(/C(=C(\C)c2ccccc2)c2ccc(OCCCN(C)C)cc2)cc1
Key: true (1)

====

Tested on: KM12 colon
Experiment: NCI-60 one-dose screen, 48 h
Details: 10 µM unless noted
This is part of a sample that, as a whole, favours compounds with a hit. Of some 83,000 tested, about 20% had one in any assay. Active and inactive are the calls of the source. The calls were made as follows: active = growth percent below 10; inactive = the rest.
Returns: one label drawn from active, inactive

Examples from the recorded data:
CC(=O)Oc1ccc(/C=N/NC(N)=S)nc1; inactive
C#CCNC(=O)[C@]1(C)CC[C@]2(C)CC[C@@H]3C(=CC[C@H]4[C@@]3(C)CC[C@H]3C(C)(C)C(=O)CC[C@]43C)[C@@H]2C1; inactive
N#CC(C#N)=Cc1cc2ccccc2nc1Oc1ccc(C(F)(F)F)cc1; inactive

Exercise: Give the logged outcome of this assay for the following compound: CC(=O)Nc1ccc(-c2ccc3c(c2)NC(=O)/C3=C\c2ccc[nH]2)cc1
Key: inactive

Exercise: Field entry: c1ccc2cc(Cn3c(-c4cccc5ccccc45)[n+](Cc4ccc5ccccc5c4)c4c5ccccc5c5ccccc5c43)ccc2c1
Key: active

Exercise: Field entry: CCCCC[n+]1ccc(SCC(=O)N(C)c2ccc(Oc3ccccc3)cc2)c2ccccc21
Key: inactive

Exercise: Field entry: COc1ccc(/C=C/C(=O)Nc2cc(/C=C\c3cc(OC)c(OC)c(OC)c3)cc(OC)c2OC)cc1OC
Key: inactive

Exercise: Field entry: COc1ccc2c(c1)oc1c(C)c3c(c(C)c12)C(=O)N(N)C3=O
Key: inactive

Exercise: Field entry: NS(=O)(=O)c1ccc(CCN2C(=O)C=CC2=O)cc1
Key: inactive

Exercise: Field entry: Cc1cc(C)c(S(=O)(=O)Oc2ccccc2[N+](=O)[O-])c(C)c1
Key: inactive

Exercise: Field entry: CCOC(=O)c1cc(C#N)n2ccc3ccccc3c12
Key: inactive

Exercise: Field entry: COc1ccc(C(C)=O)c(OC)c1
Key: inactive

====

Tested on: NCI-H322M lung
Test: NCI-60 one-dose screen, 48 h (100 = growth as untreated, 0 = no growth, -100 = all killed)
Details: 10 µM unless noted
Procedure: Growth inhibition of the NCI-H322M human Non-Small Cell Lung tumor cell line is measured as a screen for anti-cancer activity. Cells are grown in 96 well plates and exposed to the test compound for 48 hours. Compounds are tested at a single concentration, which is 10^-5 M for most compounds. The reported endpoint is percent growth (GI% or GIPRCNT), where numbers from 0 - 100% represent growth inhibition, and numbers from -100% - 0 represent cell death. […]
The panel holds about 83,000 compounds, 20% with a hit somewhere; the sample as a whole holds those more often.
# true = growth below 90% (exclusive); false = growth at/above 90%

O=C(N/N=C/c1cc2ccccc2n2nnnc12)Nc1ccccc1; false
COc1ccc(-c2nc(S(=O)(=O)c3ccccc3)c(S(=O)CC(=O)N3CCC(C)CC3)o2)cc1 (centres undefined); true
CC1(C)CC[C@]2(C(=O)O)CC[C@]3(C)C(=CC[C@@H]4[C@@]5(C)Cc6c([nH]c7ccccc67)C(C)(C)[C@@H]5CC[C@]43C)[C@@H]2C1; true
COc1ccccc1NC(=O)C1CC(c2ccc(F)cc2)=NO1 (centres undefined); false
CCCCCCCCCCCCCCCC[N+]1(C)CCN(SN2CC[N+](C)(CCCCCCCCCCCCCCCC)CC2)CC1; true

Exercise: I'd appreciate it if you could check whether COc1cccc(-c2nc3occn3c2-c2ccnc(NCCNS(=O)(=O)c3ccc(C(F)(F)F)cc3)n2)c1 has growth smaller than 90%.
Key: false

Exercise: Field entry: O=C(/C(=C\c1ccc([N+](=O)[O-])cc1)S(=O)Cc1ccc(F)cc1)c1ccc(F)cc1 (centres undefined)
Key: true

Exercise: Field entry: C=C1C(=O)O[C@H]2[C@H]1CC/C(COC(=O)NCc1c[nH]c3ccc(Br)cc13)=C\CC[C@@]1(C)O[C@@H]21
Key: true

Exercise: Field entry: COC(=O)/C=C1\S/C(=N\NC(=O)c2cc3ccc2/C=C\c2ccc(cc2)/C=C\3)N(Cc2ccccc2)C1=O
Key: false

Exercise: Field entry: COc1ccccc1NS(=O)(=O)c1cccc(C(=O)Nc2ccc(Br)cc2)c1
Key: true

====

Tested on: UACC-62 melanoma
Test: NCI-60 one-dose screen, 48 h
Conditions: 10 µM unless noted
The panel holds about 83,000 compounds, 20% with a hit somewhere; the sample as a whole holds those more often. The source made the active and inactive calls. Rule for the calls: active = growth percent below 10; inactive = the rest.
Returns: one label drawn from active, inactive

CC(Sc1nc2ccccc2c(=O)n1CCc1ccc(S(N)(=O)=O)cc1)C(=O)Nc1ccc(Cl)cc1 (stereo unspecified); inactive

Exercise: Give the logged outcome of this assay for the following molecule: O=S(=O)(NCCCNc1nccc(-c2c(-c3cccc(F)c3)nc3sccn23)n1)c1cccc2ccccc12
Key: inactive

Exercise: Field entry: COc1cc2nc(-c3ccc(Cl)cc3)cc(OCCCN3CCC(O)CC3)c2cc1OC
Key: active

Exercise: Field entry: O=C1CC(=O)OC(c2ccc([N+](=O)[O-])cc2)O1
Key: active

Exercise: Field entry: O=C(/C(=C\c1ccc([N+](=O)[O-])cc1)S(=O)Cc1ccc(Cl)cc1)c1ccc(Cl)cc1 (stereo unspecified)
Key: inactive

Exercise: Field entry: CCOC(=O)c1ccc2c(c1)ncn2-c1ccc(NC(=O)Nc2cccc(C)c2)cc1
Key: inactive
